Attribution: patent US20260217797A1

system-tested: SARS-CoV-2 wild type spike protein (on reporter virus particles) (SARS-CoV-2, UniProt P0DTC2 14-1273)
assay-notes: cell-based or functional assay
measurement-label: WT PsV IC50 (nM)
Answers are plain numbers, in nM.

Use these answered entries as a reference point.
Could you tell me which WT PsV IC50 is on file for A-20 (antibody, V domains shown) VH: QVQLVESGGGVVQPGRSLRLSCAASGFTFSNFAMHWVRQAPGKGLEWVAVILYDGINKYYADSVKGRFTISRGNSKNTLSLQMNSLRAEDTAVYYCARAQNYYDRSGTLQLDAFDIWGQGTLVTVSS VL: AIQMTQSPSSLSASVGDRVTITCRASQGIRNDLGWYQQKPGKAPKLLIYAASSLQSGVPSRFSGSGSGTDFTLTISSLQPEDFATYYCLQDYNYPLTFGGGTKVEIK ? 2.45

Could you tell me which WT PsV IC50 is on file for A-24.1 (antibody, V domains shown) VH: EVQLVESGGGLVKPGRSLRLSCAASGFTFADYTMSWFRQAPGKGLEWVGFIRSEPYGGTTEYAASVKGRFTISRDDSKSIAYLQMNSLKTEDTAVYYCSRDPWYCSGGDCYAVTGSWFDPWGQGTLVTVSS VL: DIQMTQSPSSLSASVGDRVTITCQASQDIKKYLNWYQQKPGKAPKLLIYDVSNLETGVPSRFSGSGSGTDFTFTISSLQPEDVAIYYCQQYDNLPQTFGQGTKVEIK ? 0.0657

Now examine the next entry.
Could you tell me which WT PsV IC50 is on file for A-23.2 (antibody, V domains shown) VH: EVQLVESGGGLVQPGRSLRLSCAASGFTFDDYAMHWVRQAPGKGLEWVSGTSWNSGTIGYADSVKGRFIISRDNAKNSLYLQMNSLRGEDMALYYCVKDRKREDPSLGGMDVWGQGTTVTVSS VL: SYVLTQPPSVSVAPGQTARITCGGNNIGSKSVHWYQQKPGQAPVLVVYDDTDRPSGIPERFSGSNSGNTATLTISRVEAGDEADYYCQVWDVSSDSYVFGTGTKVTVL ? 0.416
